From: patent US6511978B1

# MEASUREMENT_TARGET: Ras farnesyl transferase (Homo sapiens, UniProt P49354+P49356)
# Construct: made in house
# ASSAY_TEXT: Ras farnesyl transferase enzyme inhibition, H-Ras substrate
# Assay type: biochemical
# CONDITION_NOTES: H-Ras substrate protein; recombinant farnesyl transferase; 30 minutes at 37° C.
# Method: In the present experiment, the improved Pompliano's method (see: Pompliano et al., Biochemistry, 31, 3800, 1992) was applied. […] The enzyme reaction was performed in 50 μl of 50 mM Sodium HEPES buffer solution containing 25 mM of potassium chloride, 25 mM of magnesium chloride, 10 mM of DTT and 50 μM of zinc chloride. […] Enzyme titer was measured in the unsaturated state of substrate where the concentration of Ras substrate protein and farnesyl transferase have quantitative relationship. […]
pIC50: −log10 of the molar value.
QUANTITY_MEASURED: pIC50

Please review the entries below; each comes with its answer.
CSc1ncc(Cn2cc(C(=O)N3CCN(C)CC3)c(-c3cccc4ccccc34)c2)n1Cc1ccc2c(c1)OCO2 [Example 18]: > 8.46
CN1CCN(C(=O)c2cn(Cc3c(I)ncn3Cc3ccc4c(c3)OCO4)cc2-c2cccc3ccccc23)CC1 [Example 20]: > 8.46
Cc1ncn(Cc2ccc3c(c2)OCO3)c1Cn1cc(C(=O)N2CCN(C)CC2)c(-c2cccc3ccccc23)c1 [Example 16]: > 8.82
Cc1ncn(CCCOCc2ccccc2Cl)c1Cn1cc(C(=O)N2CCN(C)CC2)c(-c2cccc3ccccc23)c1 [Example 31]: > 8.49
Cc1ncn(Cc2ccc3c(c2)OCO3)c1Cn1cc(C(=O)N2CCN(C)CC2)c(-c2cc(Cl)cc3ccccc23)c1 [Example 52]: > 8.00

Task item: What value of pIC50 has been recorded for this entry: CN1CCN(C(=O)c2cn(Cc3cncn3CCCOCc3ccccc3)cc2-c2cccc3ccccc23)CC1 [Example 3]
Reply: > 8.00

Task item: What value of pIC50 has been recorded for this entry: Cn1cncc1Cn1cc(-c2cccc3ccccc23)c([N+](=O)[O-])c1 [Example 48]
Reply: < 7.52

Task item: What value of pIC50 has been recorded for this entry: CN1CCN(C(=O)c2cn(Cc3cncn3CCCOc3ccccc3)cc2-c2cccc3ccccc23)CC1 [Example 7]
Reply: > 8.00

Task item: What value of pIC50 has been recorded for this entry: COc1cccc(CCn2cncc2Cn2cc(-c3cccc4ccccc34)c([N+](=O)[O-])c2)c1 [Example 45]
Reply: > 7.80

Task item: What value of pIC50 has been recorded for this entry: Cc1ncc(Cn2cc(C(=O)N3CCN(C)CC3)c(-c3cccc4ccccc34)c2)n1CCCOCc1ccccc1 [Example 33]
Reply: < 7.52

###

# MEASUREMENT_TARGET: Ras farnesyl transferase (Homo sapiens, UniProt P49354+P49356)
# Construct: made in house
# ASSAY_TEXT: Ras farnesyl transferase enzyme inhibition, K-Ras substrate (H-Ras fused with polybasic lysine domain of K-Ras)
# Format: biochemical
# CONDITION_NOTES: K-Ras substrate (fused protein of H-Ras with polybasic lysine domain of K-Ras); recombinant farnesyl transferase
pIC50: −log10 of the molar value.
QUANTITY_MEASURED: pIC50

Please review the entries below; each comes with its answer.
CCSCCCn1cncc1Cn1cc(C(=O)N(C)CCOC)c(-c2cccc3ccccc23)c1: > 8.00
O=[N+]([O-])c1cn(Cc2cncn2CCc2ccc(Cl)cc2)cc1-c1cccc2ccccc12: > 8.40
Cc1ncn(Cc2ccc3c(c2)OCO3)c1Cn1cc(C(=O)N2CCN(C)CC2)c(-c2cc(Cl)cc3ccccc23)c1: > 7.52

Task item: What value of pIC50 has been recorded for this entry: CSc1c(C(=O)N2CCN(C)CC2)c(-c2cccc3ccccc23)cn1Cc1cncn1Cc1ccc2c(c1)OCO2
Reply: > 8.70

Task item: What value of pIC50 has been recorded for this entry: CCSc1c(C(=O)N2CCN(C)CC2)c(-c2cccc3ccccc23)cn1Cc1cncn1Cc1ccc2c(c1)OCO2
Reply: > 8.22

Task item: What value of pIC50 has been recorded for this entry: Cc1c(C(=O)N2CCN(C)CC2)c(-c2cccc3ccccc23)cn1Cc1cncn1Cc1ccc2c(c1)OCO2
Reply: > 8.15

Task item: What value of pIC50 has been recorded for this entry: COCCN(C)C(=O)c1cn(Cc2cncn2CCCOc2ccccc2)cc1-c1cccc2ccccc12
Reply: > 8.00
